// data source = ChEMBL document CHEMBL1132952

- systemUnderTest: Sodium-dependent dopamine transporter (Rattus norvegicus, UniProt P23977)
- Sequence (P23977 whole entry): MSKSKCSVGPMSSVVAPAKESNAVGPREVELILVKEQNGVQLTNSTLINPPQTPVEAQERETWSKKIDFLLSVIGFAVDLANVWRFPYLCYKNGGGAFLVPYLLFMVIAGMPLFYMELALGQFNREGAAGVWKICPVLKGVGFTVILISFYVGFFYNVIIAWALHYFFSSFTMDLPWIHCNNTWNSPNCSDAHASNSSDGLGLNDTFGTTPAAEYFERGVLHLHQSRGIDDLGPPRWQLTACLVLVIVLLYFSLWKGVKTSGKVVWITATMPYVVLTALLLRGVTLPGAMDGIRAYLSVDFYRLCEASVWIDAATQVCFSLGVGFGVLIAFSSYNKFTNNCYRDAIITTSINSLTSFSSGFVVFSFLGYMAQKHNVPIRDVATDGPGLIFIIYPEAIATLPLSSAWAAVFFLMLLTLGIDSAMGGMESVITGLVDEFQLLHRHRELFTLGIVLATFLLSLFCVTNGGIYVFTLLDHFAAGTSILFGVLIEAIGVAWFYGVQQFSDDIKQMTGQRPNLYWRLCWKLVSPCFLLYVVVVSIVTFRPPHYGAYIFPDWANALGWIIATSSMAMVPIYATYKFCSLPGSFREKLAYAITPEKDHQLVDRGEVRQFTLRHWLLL
pKi: −log10 of the molar value.
So basically every entry gets a class from its pKi, ranges being L: < 6; M: ≥ 6 and < 8; H: ≥ 8

*Q* Class (by measured pKi) for CN1[C@@H]2CC[C@H]1C[C@@H](OC(c1ccccc1)c1cccc(C(F)(F)F)c1)C2 (stereo not given in full)
*A* M

*Q* Categorize the following entry: COC(=O)C[C@@H]1C2C[C@H](Cc3ccccc3)C(C[C@@H]1Cc1ccccc1)N2C (stereo not given in full)
*A* L

*Q* Just checking, what class would you give CCC(=O)[C@@H]1C2CCC(C[C@@H]1OC(=O)c1ccccc1)N2C (stereo not given in full) here?
*A* M

*Q* Just checking, what class would you give `COC(=O)[C@@H]1C2CC[C@H](C[C@@H]1c1ccc(I)cc1)N2C` here?
*A* H

*Q* Category lookup for the compound `CC(C)OC(=O)[C@@H]1C2CC[C@H](C[C@@H]1c1ccc(I)cc1)N2C`
*A* H
